- target.or.system: Serine/threonine-protein kinase ATR (Homo sapiens)
- Sequence (Q13535 whole entry): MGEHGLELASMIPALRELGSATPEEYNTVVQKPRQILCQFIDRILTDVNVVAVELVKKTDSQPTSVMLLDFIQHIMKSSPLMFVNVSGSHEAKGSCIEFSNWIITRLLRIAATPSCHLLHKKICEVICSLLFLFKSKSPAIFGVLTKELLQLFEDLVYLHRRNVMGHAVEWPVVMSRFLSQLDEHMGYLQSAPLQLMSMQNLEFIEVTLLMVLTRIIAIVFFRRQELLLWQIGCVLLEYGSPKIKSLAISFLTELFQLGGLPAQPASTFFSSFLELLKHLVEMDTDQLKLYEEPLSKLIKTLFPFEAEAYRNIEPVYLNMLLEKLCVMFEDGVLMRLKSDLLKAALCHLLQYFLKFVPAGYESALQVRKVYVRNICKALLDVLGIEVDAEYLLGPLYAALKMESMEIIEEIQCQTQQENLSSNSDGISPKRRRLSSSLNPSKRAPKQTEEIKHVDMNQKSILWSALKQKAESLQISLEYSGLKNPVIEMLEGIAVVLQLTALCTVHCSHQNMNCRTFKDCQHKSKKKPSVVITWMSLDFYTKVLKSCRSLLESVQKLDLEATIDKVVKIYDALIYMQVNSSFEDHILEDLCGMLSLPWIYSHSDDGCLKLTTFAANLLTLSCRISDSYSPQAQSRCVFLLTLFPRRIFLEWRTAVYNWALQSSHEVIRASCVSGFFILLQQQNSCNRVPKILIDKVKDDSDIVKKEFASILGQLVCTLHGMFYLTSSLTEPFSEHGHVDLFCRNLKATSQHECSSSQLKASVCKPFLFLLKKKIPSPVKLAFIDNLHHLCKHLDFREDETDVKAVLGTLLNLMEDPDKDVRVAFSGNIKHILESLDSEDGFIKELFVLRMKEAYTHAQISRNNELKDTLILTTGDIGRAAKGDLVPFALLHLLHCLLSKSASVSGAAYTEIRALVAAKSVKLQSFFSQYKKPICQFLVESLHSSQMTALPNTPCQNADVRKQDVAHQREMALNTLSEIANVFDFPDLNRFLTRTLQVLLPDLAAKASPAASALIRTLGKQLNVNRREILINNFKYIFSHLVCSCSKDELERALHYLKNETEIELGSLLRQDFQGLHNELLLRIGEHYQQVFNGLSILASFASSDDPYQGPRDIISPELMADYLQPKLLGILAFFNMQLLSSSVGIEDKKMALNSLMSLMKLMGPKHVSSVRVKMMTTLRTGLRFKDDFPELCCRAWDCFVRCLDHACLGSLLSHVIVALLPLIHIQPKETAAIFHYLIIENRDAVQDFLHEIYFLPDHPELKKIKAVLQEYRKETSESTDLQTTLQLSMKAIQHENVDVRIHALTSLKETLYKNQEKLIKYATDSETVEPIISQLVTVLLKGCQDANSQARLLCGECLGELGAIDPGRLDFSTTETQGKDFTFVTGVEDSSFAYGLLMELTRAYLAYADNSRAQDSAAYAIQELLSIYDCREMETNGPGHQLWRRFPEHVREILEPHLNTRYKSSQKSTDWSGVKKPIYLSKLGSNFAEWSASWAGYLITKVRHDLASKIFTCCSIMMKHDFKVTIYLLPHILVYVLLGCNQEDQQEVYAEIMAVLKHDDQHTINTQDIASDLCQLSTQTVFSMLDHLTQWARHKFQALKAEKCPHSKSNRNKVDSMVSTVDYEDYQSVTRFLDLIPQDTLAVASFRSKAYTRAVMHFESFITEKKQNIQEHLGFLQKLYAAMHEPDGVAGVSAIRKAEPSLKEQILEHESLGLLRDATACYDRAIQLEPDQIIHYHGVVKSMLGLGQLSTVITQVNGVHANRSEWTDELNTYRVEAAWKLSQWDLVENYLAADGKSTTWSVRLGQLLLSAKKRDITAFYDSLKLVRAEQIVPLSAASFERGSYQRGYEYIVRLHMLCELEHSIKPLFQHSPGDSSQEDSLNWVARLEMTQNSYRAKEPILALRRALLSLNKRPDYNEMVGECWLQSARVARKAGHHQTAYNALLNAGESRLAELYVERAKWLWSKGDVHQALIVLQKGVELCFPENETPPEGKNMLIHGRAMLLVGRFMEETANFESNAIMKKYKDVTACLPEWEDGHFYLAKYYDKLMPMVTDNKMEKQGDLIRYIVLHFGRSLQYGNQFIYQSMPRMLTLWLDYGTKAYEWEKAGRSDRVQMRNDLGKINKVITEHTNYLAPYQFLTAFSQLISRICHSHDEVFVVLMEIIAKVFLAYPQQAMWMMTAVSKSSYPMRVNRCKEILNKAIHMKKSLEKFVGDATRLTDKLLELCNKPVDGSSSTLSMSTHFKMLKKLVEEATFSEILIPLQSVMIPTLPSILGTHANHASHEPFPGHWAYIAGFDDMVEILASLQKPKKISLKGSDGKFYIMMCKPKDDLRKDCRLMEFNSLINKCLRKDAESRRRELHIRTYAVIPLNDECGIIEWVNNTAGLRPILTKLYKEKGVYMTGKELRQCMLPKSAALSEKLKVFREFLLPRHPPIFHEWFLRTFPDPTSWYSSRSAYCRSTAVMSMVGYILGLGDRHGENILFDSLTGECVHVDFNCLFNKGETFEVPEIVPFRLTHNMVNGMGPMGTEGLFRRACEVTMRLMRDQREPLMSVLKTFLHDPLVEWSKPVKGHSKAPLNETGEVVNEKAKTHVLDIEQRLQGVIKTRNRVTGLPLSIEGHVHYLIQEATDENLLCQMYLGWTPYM
- assay.explanation: Inhibition of recombinant human full-length N-terminal Flag epitope-tagged ATR expressed in HEK293T cells using ASELPASQPQPFSAKKK peptide as substrate measured after 24 hrs in presence of [gamma-33P] ATP by microbeta liquid scintillation counting analysis
value.kind: pKi
Note: pKi values are expressed as the negative base-10 logarithm of concentration in M.

Input line: Value lookup for pKi; key = `CC(C)S(=O)(=O)c1ccc(-c2cnc(N)c(-c3nc(-c4ccccc4)no3)n2)cc1`
Output line: 7.59

Input line: For `CC(C)S(=O)(=O)c1ccc(-c2cnc(N)c(-c3nnc(-c4ccccc4)o3)n2)cc1` , what is its reported pKi?
Output line: 9.00

Continuing:
Input line: Please report the recorded pKi for `CC(C)S(=O)(=O)c1ccc(-c2cnc(N)c(-c3cnc(-c4ccccc4)o3)n2)cc1` .
Output line: 7.68

Input line: Look at this molecule and give its reported pKi. `CNCc1ccc(-c2cc(-c3nc(-c4ccc(S(=O)(=O)C(C)C)cc4)cnc3N)on2)c(Cl)c1`
Output line: 9.12

Input line: Consider the molecule `CCNCc1ccc(-c2cc(-c3nc(-c4ccc(S(=O)(=O)C(C)C)cc4)cnc3N)on2)cc1` and give its measured pKi.
Output line: 9.68
